Sourced from PubChem BioAssay (NCI)

System: P388 leukemia
Experiment: NCI tumour cell line growth inhibition, 48 h
PARAMETER MEASURED: TGI

Reference set, count: 3
{"columns": ["STRUCTURE NOTATION", "TARGET OF ASSAY", "TGI"],
 "data": [
  ["Nc1nc2[nH]c(=O)cnc2c(=O)[nH]1", "P388 leukemia", "> 125 µM"],
  ["O=[N+]([O-])c1ccc2[nH]c3c(-c4ccccc4)nccc3c2c1", "P388 leukemia", "> 47.3 µM"],
  ["CCOC(=O)/C(=C\\c1ccccc1)C(=O)CCN1CCOCC1", "P388 leukemia", "3.66 µM"]
]}

Next item in the queue.
(Q) Data request, read-out TGI, for `COc1cc(/C=C/C(=O)Oc2ccc(NC(C)=O)cc2)ccc1C(=O)OCc1ccccc1`
(A) > 100 µM
